Source listed as the supplement of paper PMC6555819.

Test system: RARa:RXR (NR concentration 270 nM, RXRa partner concentration 90 nM)
Method Summary: PBM binding z-score (relative to random genomic background probes); higher = stronger binding; sequences stand for … in GC…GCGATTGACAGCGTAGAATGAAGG
Category | rule: reported PBM binding z-score within range, see class 0 (below 2), class 1 (2 to below 5), class 2 (5 or more)

INSERT INTO assay_data (seq_string, assigned_label) VALUES
  ('AGTCAAAGTTCATCTAGGTAACATAAGATATGCT', 'class 1'),
  ('CGTCAAAGGTCAAGGTAACGTAACAGAAAGCAGC', 'class 2'),
  ('CCAGACAGGTGAGAAGGTAACTCAGCCTCGATTA', 'class 0'),
  ('ATATGTAGGTTAAGCGTCATTCAGGTTGGTTCGC', 'class 0'),
  ('CGAACGAGGTCACCAGGACAGTGAAGAGGTTGGA', 'class 2'),
  ('CGAACTAGGTCGAGGACAGTGAATCTCCGCACGC', 'class 0'),
  ('ATCGAAAGGTCGACGCGGTGAGTATACACCGTTT', 'class 1'),
  ('AATACAAGGTCATCGTAGGCCAGAGTACGCACAG', 'class 1'),
  ('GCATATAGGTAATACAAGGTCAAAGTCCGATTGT', 'class 1'),
  ('CGAACAAGGTCACCAGGACAGTGAAGAGGTTGGA', 'class 2'),
  ('CAAACTAGGTCACGAGAGGTCAAAGTCGAATGAC', 'class 2'),
  ('CAGCATAGGTCAGGGCCAGTATAGGAGGAACGTT', 'class 1'),
  ('AGAACGAGGTCACGCTGAGTTGATAGCAGAGTAG', 'class 2'),
  ('GATATAGGGTCAGCTAGAGGCCAGAGTATGGAAA', 'class 1'),
  ('CGTCCAAGGTCATATGAGGTCAGTGAAGACAGAT', 'class 2'),
  ('TCTTGTAGGTCAATAGAGGTTAAGAAAGTGCGCT', 'class 1'),
  ('CAAACTAGGTCACAAAAGGTCAAAGTCGAATGAC', 'class 2'),
  ('CGTCAAAGGTCAATGCTAGGTCAGTGAAAGCATT', 'class 2'),
  ('AGAATGAGATTACCAAAGATCAGGGAAACGCTTG', 'class 0'),
  ('CGTACAAGGTCAAAGGTCAGTGAAGAGATGACGG', 'class 2'),
  ('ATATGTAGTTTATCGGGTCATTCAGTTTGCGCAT', 'class 1'),
  ('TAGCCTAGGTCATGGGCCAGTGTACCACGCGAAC', 'class 1'),
  ('CGAACGAGGTCATTGACAGGACAGTGAATAGTAA', 'class 2'),
  ('TAGCCTAGGTCATACAGGGGCCAGTATAGAAAGC', 'class 1'),
  ('CGAACTAGGTCAAGGCCAGTGAATCTCCGCACGC', 'class 1'),
  ('ATCGAAAGGTCAACGAGGTGAGTATACACCGTTT', 'class 2'),
  ('ATCGAAAGGTCGACCAGGTGAGTATACACCGTTT', 'class 1'),
  ('CGAACTAGGTCGTCCAGGACAGTGAATACATTGA', 'class 0'),
  ('CCTACTGGGCCAAAAAGTTCATTGATGCCGATAA', 'class 0'),
  ('TCTCGGAGGACACTAAAGGTCAGAGCTCGACATC', 'class 1'),
  ('TCTTGTAGATCAATAGAAGTTAAGAAAGTGCGCT', 'class 0'),
  ('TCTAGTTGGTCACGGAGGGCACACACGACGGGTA', 'class 0'),
  ('TCTTGTAGATCGATAGAGGTTAAGAAAGTGCGCT', 'class 0'),
  ('CGAACGAGGTCATGAGTTGATAGCAAATGCCGAT', 'class 2'),
  ('AGAATGGGGTTACCAAAGATCAGGGAAACGCTTG', 'class 1'),
  ('CGTCAAAGTTCAAGGTCACGTAACAGAAAGCAGC', 'class 2'),
  ('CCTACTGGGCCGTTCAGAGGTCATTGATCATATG', 'class 1'),
  ('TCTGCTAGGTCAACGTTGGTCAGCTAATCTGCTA', 'class 1'),
  ('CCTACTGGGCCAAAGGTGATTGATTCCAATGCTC', 'class 0'),
  ('CTATGTAGGTTAAGGGAGTCATTCAGTTTGAAAG', 'class 0'),
  ('CTATGTAGGTTAGGGGGGTCATTCAGTTTGAAAG', 'class 2'),
  ('AATACAGGGTGACTAGGCCAGAGTAGGTACGAAT', 'class 0'),
  ('TACCCTAGGTCATTCAGGGGCCAGTATAGAAAGC', 'class 1'),
  ('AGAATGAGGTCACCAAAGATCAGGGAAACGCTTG', 'class 2'),
  ('CCTACTCGGCCAAAAAGGTCATTGATGCCGATAA', 'class 1'),
  ('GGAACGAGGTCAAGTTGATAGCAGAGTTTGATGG', 'class 2'),
  ('CCTACTGGTCCAAGGTCATTGATCAGTCAAAGCA', 'class 1'),
  ('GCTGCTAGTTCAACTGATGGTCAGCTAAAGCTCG', 'class 0');
